assay method text: Acute oral toxicity in mice
cond: mouse, in vivo, solution in sodium bicarbonate-saline
endpoint label: LD50

Param item = "O=Cc1c(O)cccc1OCCCCC(=O)O" ; retrieve measured LD50. ~1000 mg/kg
